Give measured KINOMEscan: ABL1(F317L)-phosphorylated for each item. Keep answers brief.
Biological target: panel of 442 kinases (Homo sapiens, UniProt P00519, F317L)
Construct: purchased KINOMEscan
Sequence (P00519 whole entry F317L): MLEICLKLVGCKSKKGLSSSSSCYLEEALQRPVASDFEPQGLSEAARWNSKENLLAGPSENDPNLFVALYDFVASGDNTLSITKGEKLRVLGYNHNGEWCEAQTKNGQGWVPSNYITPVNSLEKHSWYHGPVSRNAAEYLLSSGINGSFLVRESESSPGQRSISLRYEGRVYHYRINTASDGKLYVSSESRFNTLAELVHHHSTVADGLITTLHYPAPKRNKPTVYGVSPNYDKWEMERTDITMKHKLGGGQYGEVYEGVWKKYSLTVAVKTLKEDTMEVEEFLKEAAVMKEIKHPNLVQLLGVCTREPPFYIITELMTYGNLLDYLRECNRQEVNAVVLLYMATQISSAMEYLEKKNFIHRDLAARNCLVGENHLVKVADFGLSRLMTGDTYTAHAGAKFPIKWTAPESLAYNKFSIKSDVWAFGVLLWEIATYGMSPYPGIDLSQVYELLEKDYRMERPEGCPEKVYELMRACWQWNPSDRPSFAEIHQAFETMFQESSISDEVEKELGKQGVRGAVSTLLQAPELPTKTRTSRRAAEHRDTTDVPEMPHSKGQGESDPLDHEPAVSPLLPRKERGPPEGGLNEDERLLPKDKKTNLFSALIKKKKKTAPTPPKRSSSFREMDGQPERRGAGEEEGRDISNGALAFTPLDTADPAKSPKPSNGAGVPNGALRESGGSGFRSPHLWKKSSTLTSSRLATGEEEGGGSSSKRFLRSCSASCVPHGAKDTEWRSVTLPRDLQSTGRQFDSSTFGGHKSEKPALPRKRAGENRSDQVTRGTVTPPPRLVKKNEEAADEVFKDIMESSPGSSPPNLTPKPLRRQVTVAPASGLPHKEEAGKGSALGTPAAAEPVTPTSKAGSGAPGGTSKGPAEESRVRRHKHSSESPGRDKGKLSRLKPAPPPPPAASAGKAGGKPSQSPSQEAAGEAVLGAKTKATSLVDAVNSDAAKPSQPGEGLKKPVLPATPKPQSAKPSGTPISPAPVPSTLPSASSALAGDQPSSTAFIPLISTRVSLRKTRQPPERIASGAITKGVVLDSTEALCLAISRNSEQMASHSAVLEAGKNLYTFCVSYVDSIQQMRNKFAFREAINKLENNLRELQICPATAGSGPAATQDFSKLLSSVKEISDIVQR
Type: binding
Details: Compound Concentration 10 µM
Please state the value as a number alone, without comment.

Problem: Given the compound COc1cc(C(=O)N2CCC(N3CCN(C)CC3)CC2)ccc1Nc1ncc2c(n1)N(C1CCCC1)c1ccccc1C(=O)N2C , what is its reported KINOMEscan: ABL1(F317L)-phosphorylated?
Result: 9.1

Problem: Given the compound COc1cc(C(=O)N2CCC(N3CCN(C)CC3)CC2)ccc1Nc1ncc2c(n1)N(C)c1ccccc1C(=O)N2C , what is its reported KINOMEscan: ABL1(F317L)-phosphorylated?
Result: 0.85

Problem: Given the compound CCOc1cc(C(=O)N2CCC(N3CCN(C)CC3)CC2)ccc1Nc1ncc2c(n1)N(C1CCCC1)c1ccccc1C(=O)N2C , what is its reported KINOMEscan: ABL1(F317L)-phosphorylated?
Result: 34

Problem: Given the compound COc1cc(C(=O)N2CCC(N3CCN(C)CC3)CC2)ccc1Nc1ncc2c(n1)N1CCc3cccc(c31)C(=O)N2C , what is its reported KINOMEscan: ABL1(F317L)-phosphorylated?
Result: 7.8

* * *

Give measured KINOMEscan: HIPK4 for each item. Keep answers brief.
Target: panel of 442 kinases (Homo sapiens, UniProt Q8NE63)
Construct: purchased KINOMEscan
Sequence (Q8NE63 whole entry): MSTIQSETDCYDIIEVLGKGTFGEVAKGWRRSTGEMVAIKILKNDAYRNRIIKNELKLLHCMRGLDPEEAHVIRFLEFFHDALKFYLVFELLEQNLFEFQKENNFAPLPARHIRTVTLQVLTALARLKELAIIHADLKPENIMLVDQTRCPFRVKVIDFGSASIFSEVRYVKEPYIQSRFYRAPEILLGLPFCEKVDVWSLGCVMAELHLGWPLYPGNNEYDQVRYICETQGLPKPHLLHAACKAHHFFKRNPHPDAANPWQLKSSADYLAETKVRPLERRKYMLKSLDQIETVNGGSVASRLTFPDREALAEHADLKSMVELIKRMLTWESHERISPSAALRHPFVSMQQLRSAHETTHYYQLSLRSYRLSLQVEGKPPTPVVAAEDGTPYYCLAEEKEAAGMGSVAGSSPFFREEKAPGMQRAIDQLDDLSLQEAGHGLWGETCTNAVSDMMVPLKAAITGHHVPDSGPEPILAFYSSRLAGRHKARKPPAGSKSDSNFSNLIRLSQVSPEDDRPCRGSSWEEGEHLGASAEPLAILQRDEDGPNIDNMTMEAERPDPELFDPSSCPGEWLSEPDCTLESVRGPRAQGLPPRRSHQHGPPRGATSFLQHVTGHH
Assay type: binding
Settings: Compound Concentration 10 µM
Please state the value as a number alone, without comment.

Problem: Given the compound COc1cc(C(=O)N2CCC(N3CCN(C)CC3)CC2)ccc1Nc1ncc2c(n1)N(C)c1ccccc1C(=O)N2C , what is its reported KINOMEscan: HIPK4?
Result: 100

Problem: Given the compound CCOc1cc(C(=O)N2CCC(N3CCN(C)CC3)CC2)ccc1Nc1ncc2c(n1)N(C1CCCC1)c1ccccc1C(=O)N2C , what is its reported KINOMEscan: HIPK4?
Result: 100

Problem: Given the compound COc1cc(C(=O)N2CCC(N3CCN(C)CC3)CC2)ccc1Nc1ncc2c(n1)N(C1CCCC1)c1ccccc1C(=O)N2C , what is its reported KINOMEscan: HIPK4?
Result: 87

Problem: Given the compound COc1cc(C(=O)N2CCC(N3CCN(C)CC3)CC2)ccc1Nc1ncc2c(n1)N1CCc3cccc(c31)C(=O)N2C , what is its reported KINOMEscan: HIPK4?
Result: 50

* * *

Biological target: panel of 442 kinases (Homo sapiens)
Construct: purchased KINOMEscan
Assay type: binding
Details: kinase YSK1; compound concentration 10 µM
Give measured % Ctrl, YSK1 for each item. Keep answers brief.
Answer format: value, then unit.

Problem: Give panel of 442 kinases (Homo sapiens) % Ctrl, YSK1 for COc1cc(C(=O)N2CCC(N3CCN(C)CC3)CC2)ccc1Nc1ncc2c(n1)N(C1CCCC1)c1ccccc1C(=O)N2C [Compound 25]
Result: 66 % Ctrl

Problem: Give panel of 442 kinases (Homo sapiens) % Ctrl, YSK1 for COc1cc(C(=O)N2CCC(N3CCN(C)CC3)CC2)ccc1Nc1ncc2c(n1)N(C)c1ccccc1C(=O)N2C [15 (LRRK2-IN-1)]
Result: 68 % Ctrl

Problem: Give panel of 442 kinases (Homo sapiens) % Ctrl, YSK1 for COc1cc(C(=O)N2CCC(N3CCN(C)CC3)CC2)ccc1Nc1ncc2c(n1)N1CCc3cccc(c31)C(=O)N2C [Compound 24]
Result: 60 % Ctrl

Problem: Give panel of 442 kinases (Homo sapiens) % Ctrl, YSK1 for CCOc1cc(C(=O)N2CCC(N3CCN(C)CC3)CC2)ccc1Nc1ncc2c(n1)N(C1CCCC1)c1ccccc1C(=O)N2C [Compound 26]
Result: 90 % Ctrl

* * *

Biological target: panel of 442 kinases (Homo sapiens, UniProt P78362)
Construct: purchased KINOMEscan
Sequence (P78362 whole entry): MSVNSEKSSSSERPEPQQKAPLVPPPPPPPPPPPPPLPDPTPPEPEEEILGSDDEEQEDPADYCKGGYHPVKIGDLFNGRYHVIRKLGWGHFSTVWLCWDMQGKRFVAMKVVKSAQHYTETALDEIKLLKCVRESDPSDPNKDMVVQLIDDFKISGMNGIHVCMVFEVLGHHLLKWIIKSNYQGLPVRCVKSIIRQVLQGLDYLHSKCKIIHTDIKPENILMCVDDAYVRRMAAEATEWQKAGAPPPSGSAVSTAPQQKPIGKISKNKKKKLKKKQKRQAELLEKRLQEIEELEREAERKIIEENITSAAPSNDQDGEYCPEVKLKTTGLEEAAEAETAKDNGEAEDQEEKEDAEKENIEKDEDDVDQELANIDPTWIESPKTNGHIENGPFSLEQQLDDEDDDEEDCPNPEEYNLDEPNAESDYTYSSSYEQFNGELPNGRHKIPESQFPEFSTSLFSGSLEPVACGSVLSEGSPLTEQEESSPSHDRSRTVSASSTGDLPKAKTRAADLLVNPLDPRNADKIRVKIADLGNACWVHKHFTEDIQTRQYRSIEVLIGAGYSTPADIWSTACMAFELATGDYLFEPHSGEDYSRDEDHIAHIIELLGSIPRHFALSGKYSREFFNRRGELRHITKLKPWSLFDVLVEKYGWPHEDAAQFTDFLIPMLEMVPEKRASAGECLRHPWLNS
Format: binding
Conditions: kinase SRPK2; compound concentration 10 µM
Give measured % Ctrl, SRPK2 for each item. Keep answers brief.
Field format: number, assumed % Ctrl, no unit text.

Problem: Given the compound COc1cc(C(=O)N2CCC(N3CCN(C)CC3)CC2)ccc1Nc1ncc2c(n1)N1CCc3cccc(c31)C(=O)N2C , what is its reported % Ctrl, SRPK2?
Result: 98

Problem: Given the compound COc1cc(C(=O)N2CCC(N3CCN(C)CC3)CC2)ccc1Nc1ncc2c(n1)N(C)c1ccccc1C(=O)N2C , what is its reported % Ctrl, SRPK2?
Result: 100

Problem: Given the compound COc1cc(C(=O)N2CCC(N3CCN(C)CC3)CC2)ccc1Nc1ncc2c(n1)N(C1CCCC1)c1ccccc1C(=O)N2C , what is its reported % Ctrl, SRPK2?
Result: 86

Problem: Given the compound CCOc1cc(C(=O)N2CCC(N3CCN(C)CC3)CC2)ccc1Nc1ncc2c(n1)N(C1CCCC1)c1ccccc1C(=O)N2C , what is its reported % Ctrl, SRPK2?
Result: 100

* * *

Give measured KINOMEscan: EGFR for each item. Keep answers brief.
Target: panel of 442 kinases (Homo sapiens)
Construct: purchased KINOMEscan
Type: binding
Settings: Compound Concentration 10 µM
Please state the value as a number alone, without comment.

Problem: Given the molecule CCOc1cc(C(=O)N2CCC(N3CCN(C)CC3)CC2)ccc1Nc1ncc2c(n1)N(C1CCCC1)c1ccccc1C(=O)N2C , what is its reported KINOMEscan: EGFR?
Result: 100

Problem: Given the molecule COc1cc(C(=O)N2CCC(N3CCN(C)CC3)CC2)ccc1Nc1ncc2c(n1)N1CCc3cccc(c31)C(=O)N2C , what is its reported KINOMEscan: EGFR?
Result: 74

Problem: Given the molecule COc1cc(C(=O)N2CCC(N3CCN(C)CC3)CC2)ccc1Nc1ncc2c(n1)N(C1CCCC1)c1ccccc1C(=O)N2C , what is its reported KINOMEscan: EGFR?
Result: 89

Problem: Given the molecule COc1cc(C(=O)N2CCC(N3CCN(C)CC3)CC2)ccc1Nc1ncc2c(n1)N(C)c1ccccc1C(=O)N2C , what is its reported KINOMEscan: EGFR?
Result: 84

* * *

Target: panel of 442 kinases (Homo sapiens, UniProt P07949, V804L)
Construct: purchased KINOMEscan
Sequence (P07949 29-1114 V804L): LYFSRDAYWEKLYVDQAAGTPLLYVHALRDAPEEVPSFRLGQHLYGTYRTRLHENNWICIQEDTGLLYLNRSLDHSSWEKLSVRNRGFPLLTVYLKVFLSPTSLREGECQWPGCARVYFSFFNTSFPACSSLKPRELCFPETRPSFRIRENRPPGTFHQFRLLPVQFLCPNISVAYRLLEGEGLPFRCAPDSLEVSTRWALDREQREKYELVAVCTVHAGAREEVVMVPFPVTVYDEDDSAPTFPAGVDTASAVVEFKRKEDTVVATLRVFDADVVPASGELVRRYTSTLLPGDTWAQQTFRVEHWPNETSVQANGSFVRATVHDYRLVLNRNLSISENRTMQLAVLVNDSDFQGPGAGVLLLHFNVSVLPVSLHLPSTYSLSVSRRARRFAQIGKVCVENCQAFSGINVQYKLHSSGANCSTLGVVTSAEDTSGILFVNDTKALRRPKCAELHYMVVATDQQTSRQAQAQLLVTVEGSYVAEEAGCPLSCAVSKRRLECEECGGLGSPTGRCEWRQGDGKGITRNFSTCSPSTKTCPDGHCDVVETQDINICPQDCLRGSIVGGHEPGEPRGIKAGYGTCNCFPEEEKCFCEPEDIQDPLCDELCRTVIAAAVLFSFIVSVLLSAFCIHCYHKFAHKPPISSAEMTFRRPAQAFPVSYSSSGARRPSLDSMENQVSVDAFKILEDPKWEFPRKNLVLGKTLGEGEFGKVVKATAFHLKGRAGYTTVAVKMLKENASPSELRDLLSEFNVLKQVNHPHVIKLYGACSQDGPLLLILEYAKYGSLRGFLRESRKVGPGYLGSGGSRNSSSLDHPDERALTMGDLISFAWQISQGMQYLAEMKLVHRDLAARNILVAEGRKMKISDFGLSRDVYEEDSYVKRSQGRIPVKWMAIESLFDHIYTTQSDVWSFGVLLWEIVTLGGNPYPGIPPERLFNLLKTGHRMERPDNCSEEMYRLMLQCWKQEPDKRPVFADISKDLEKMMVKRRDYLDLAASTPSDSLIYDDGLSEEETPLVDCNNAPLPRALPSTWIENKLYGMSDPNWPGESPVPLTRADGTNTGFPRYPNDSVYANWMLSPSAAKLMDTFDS
Format: binding
Conditions: Compound Concentration 10 µM
MEASUREMENT NAME: KINOMEscan: RET(V804L)
Please state the value as a number alone, without comment.

Problem: Give panel of 442 kinases (Homo sapiens, UniProt P07949, V804L) KINOMEscan: RET(V804L) for CCOc1cc(C(=O)N2CCC(N3CCN(C)CC3)CC2)ccc1Nc1ncc2c(n1)N(C1CCCC1)c1ccccc1C(=O)N2C
Result: 100

Problem: Give panel of 442 kinases (Homo sapiens, UniProt P07949, V804L) KINOMEscan: RET(V804L) for COc1cc(C(=O)N2CCC(N3CCN(C)CC3)CC2)ccc1Nc1ncc2c(n1)N(C)c1ccccc1C(=O)N2C
Result: 89

Problem: Give panel of 442 kinases (Homo sapiens, UniProt P07949, V804L) KINOMEscan: RET(V804L) for COc1cc(C(=O)N2CCC(N3CCN(C)CC3)CC2)ccc1Nc1ncc2c(n1)N(C1CCCC1)c1ccccc1C(=O)N2C
Result: 100

Problem: Give panel of 442 kinases (Homo sapiens, UniProt P07949, V804L) KINOMEscan: RET(V804L) for COc1cc(C(=O)N2CCC(N3CCN(C)CC3)CC2)ccc1Nc1ncc2c(n1)N1CCc3cccc(c31)C(=O)N2C
Result: 77

* * *

Target: panel of 442 kinases (Homo sapiens)
Construct: purchased KINOMEscan
Type: binding
Conditions: Compound Concentration 10 µM
MEASUREMENT NAME: KINOMEscan: PRKR
Please state the value as a number alone, without comment.

Problem: Given the compound COc1cc(C(=O)N2CCC(N3CCN(C)CC3)CC2)ccc1Nc1ncc2c(n1)N1CCc3cccc(c31)C(=O)N2C , what is its reported KINOMEscan: PRKR?
Result: 33

Problem: Given the compound COc1cc(C(=O)N2CCC(N3CCN(C)CC3)CC2)ccc1Nc1ncc2c(n1)N(C1CCCC1)c1ccccc1C(=O)N2C , what is its reported KINOMEscan: PRKR?
Result: 71

Problem: Given the compound CCOc1cc(C(=O)N2CCC(N3CCN(C)CC3)CC2)ccc1Nc1ncc2c(n1)N(C1CCCC1)c1ccccc1C(=O)N2C , what is its reported KINOMEscan: PRKR?
Result: 97

Problem: Given the compound COc1cc(C(=O)N2CCC(N3CCN(C)CC3)CC2)ccc1Nc1ncc2c(n1)N(C)c1ccccc1C(=O)N2C , what is its reported KINOMEscan: PRKR?
Result: 84

* * *

Biological target: panel of 442 kinases (Homo sapiens)
Construct: purchased KINOMEscan
Assay type: binding
Settings: kinase TBK1; compound concentration 10 µM
Excerpt: We assessed the selectivity of members of this scaffold using the KINOMEscan methodology across a near comprehensive panel of 442 kinases [[18,27]].
MEASUREMENT NAME: % Ctrl, TBK1
Answer format: value, then unit.

Problem: Given the compound COc1cc(C(=O)N2CCC(N3CCN(C)CC3)CC2)ccc1Nc1ncc2c(n1)N1CCc3cccc(c31)C(=O)N2C , what is its reported % Ctrl, TBK1?
Result: 98 % Ctrl

Problem: Given the compound COc1cc(C(=O)N2CCC(N3CCN(C)CC3)CC2)ccc1Nc1ncc2c(n1)N(C1CCCC1)c1ccccc1C(=O)N2C , what is its reported % Ctrl, TBK1?
Result: 100 % Ctrl

Problem: Given the compound CCOc1cc(C(=O)N2CCC(N3CCN(C)CC3)CC2)ccc1Nc1ncc2c(n1)N(C1CCCC1)c1ccccc1C(=O)N2C , what is its reported % Ctrl, TBK1?
Result: 100 % Ctrl

Problem: Given the compound COc1cc(C(=O)N2CCC(N3CCN(C)CC3)CC2)ccc1Nc1ncc2c(n1)N(C)c1ccccc1C(=O)N2C , what is its reported % Ctrl, TBK1?
Result: 97 % Ctrl

Data credit: paper PMC3914206
